These entries and their values trace back to patent US9708251B2.

- experiment.notes: Emulsion stability testing of nonionic emulsifiers, aromatic solvent series
- Assay type: physicochemical
- Set-up: key: C = creamy; CO = creamy oil; O = oil; GC = gritty cream; NS = no separation; OC = oily cream
- test.context: 2,4-D ester 480 g/L in Exxsol D-110, 1000 ppm water
experimental.readout: 1 h separation, appearance

Past entries and their recorded results:
{"columns": ["compound", "readout.value"],
 "data": [
  ["C=CCCCCCCCCOCCOCCOCCOCCOCCO [A10-10]", "CO"],
  ["CCC=CCCCCCCCCOCCOCCOCCOCCOCCOCCOCCO (mixture of isomers) [A12-13]", "CO"],
  ["C=CCCCCCCCCOCCOCCOCCO [A10-7]", "O"],
  ["C=CCCCCCCCCOCCOCCOCCOCCOCCOCCOCCO [A10-13]", "CO"]
]}

Now look at this one.
Which 1 h separation, appearance is reported for this compound? C=CCCCCCCCCOCCOCCOCCOCCOCCOCCOCCOCCOCCOCCOCCOCCOCCOCCOCCO [A10-16]
C
